Readings of IC50 for the listed compounds
# TARGET_OR_TEST_SYSTEM: Sentrin-specific protease 7 (Homo sapiens, UniProt Q9BQF6);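 note: Luminescence-based dose-response confirmation of ultra-high-throughput screening hits, measuring inhibition of SENP7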
# Sequence (Q9BQF6 whole entry): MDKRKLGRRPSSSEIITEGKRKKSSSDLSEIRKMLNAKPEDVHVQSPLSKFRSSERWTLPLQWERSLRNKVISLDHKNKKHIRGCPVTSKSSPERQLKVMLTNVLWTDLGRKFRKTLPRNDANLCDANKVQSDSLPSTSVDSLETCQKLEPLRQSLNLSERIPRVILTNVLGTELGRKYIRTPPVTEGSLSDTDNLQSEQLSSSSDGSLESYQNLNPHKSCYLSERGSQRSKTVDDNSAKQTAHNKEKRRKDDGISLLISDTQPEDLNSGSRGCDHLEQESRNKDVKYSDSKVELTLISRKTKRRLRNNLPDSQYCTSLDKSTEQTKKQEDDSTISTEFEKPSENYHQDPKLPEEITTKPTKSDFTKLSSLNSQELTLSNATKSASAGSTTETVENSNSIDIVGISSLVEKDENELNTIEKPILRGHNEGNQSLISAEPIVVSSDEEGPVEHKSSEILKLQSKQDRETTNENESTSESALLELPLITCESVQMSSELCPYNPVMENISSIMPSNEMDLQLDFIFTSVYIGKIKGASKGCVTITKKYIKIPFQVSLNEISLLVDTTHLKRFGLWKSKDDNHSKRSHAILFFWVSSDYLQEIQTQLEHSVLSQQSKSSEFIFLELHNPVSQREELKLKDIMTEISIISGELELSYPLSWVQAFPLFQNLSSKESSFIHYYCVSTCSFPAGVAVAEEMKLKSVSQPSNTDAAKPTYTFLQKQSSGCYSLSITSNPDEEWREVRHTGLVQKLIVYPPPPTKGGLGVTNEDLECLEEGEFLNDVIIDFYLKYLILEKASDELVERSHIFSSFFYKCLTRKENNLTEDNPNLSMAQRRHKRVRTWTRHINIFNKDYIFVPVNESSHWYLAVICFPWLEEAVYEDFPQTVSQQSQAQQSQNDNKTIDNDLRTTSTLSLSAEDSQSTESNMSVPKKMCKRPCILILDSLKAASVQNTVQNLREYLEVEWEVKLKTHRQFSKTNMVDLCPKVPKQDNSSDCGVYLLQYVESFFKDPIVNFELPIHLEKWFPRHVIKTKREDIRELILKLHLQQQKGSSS
# Type: functional
Active and inactive are the calls of the source.
PROPERTY: IC50

>>> meas_value("Oc1ccc(/C=N/Nc2cc(N3CCCC3)nc(N3CCCC3)n2)cc1")
"31 µM (active)"
>>> meas_value("COc1ccc(/C=N/Nc2cc(N3CCCC3)nc(N3CCCC3)n2)cc1")
"5.23 µM (active)"
>>> meas_value("Cc1cccc(-n2ncc3c(N4CCC(C)CC4)ncnc32)c1")
"7.97 µM (active)"
>>> meas_value("COc1cccc(C(=O)Oc2ccc(/C=N/Nc3ccc(C(=O)O)cc3)cc2OC)c1")
"12.3 µM (active)"
>>> meas_value("C/C(=N\\Nc1ccc([N+](=O)[O-])cc1)c1ccco1")
"6.51 µM (active)"
>>> meas_value("C/C(=N\\OC(=O)c1ccc(Br)cc1)c1ccccn1")
"1.01 µM (active)"
>>> meas_value("N#Cc1ccsc1NC(=O)CSc1nnnn1-c1ccc(O)cc1")
"10.3 µM (active)"

* * *

# TARGET_OR_TEST_SYSTEM: UniProt O96028
# Sequence (O96028 whole entry): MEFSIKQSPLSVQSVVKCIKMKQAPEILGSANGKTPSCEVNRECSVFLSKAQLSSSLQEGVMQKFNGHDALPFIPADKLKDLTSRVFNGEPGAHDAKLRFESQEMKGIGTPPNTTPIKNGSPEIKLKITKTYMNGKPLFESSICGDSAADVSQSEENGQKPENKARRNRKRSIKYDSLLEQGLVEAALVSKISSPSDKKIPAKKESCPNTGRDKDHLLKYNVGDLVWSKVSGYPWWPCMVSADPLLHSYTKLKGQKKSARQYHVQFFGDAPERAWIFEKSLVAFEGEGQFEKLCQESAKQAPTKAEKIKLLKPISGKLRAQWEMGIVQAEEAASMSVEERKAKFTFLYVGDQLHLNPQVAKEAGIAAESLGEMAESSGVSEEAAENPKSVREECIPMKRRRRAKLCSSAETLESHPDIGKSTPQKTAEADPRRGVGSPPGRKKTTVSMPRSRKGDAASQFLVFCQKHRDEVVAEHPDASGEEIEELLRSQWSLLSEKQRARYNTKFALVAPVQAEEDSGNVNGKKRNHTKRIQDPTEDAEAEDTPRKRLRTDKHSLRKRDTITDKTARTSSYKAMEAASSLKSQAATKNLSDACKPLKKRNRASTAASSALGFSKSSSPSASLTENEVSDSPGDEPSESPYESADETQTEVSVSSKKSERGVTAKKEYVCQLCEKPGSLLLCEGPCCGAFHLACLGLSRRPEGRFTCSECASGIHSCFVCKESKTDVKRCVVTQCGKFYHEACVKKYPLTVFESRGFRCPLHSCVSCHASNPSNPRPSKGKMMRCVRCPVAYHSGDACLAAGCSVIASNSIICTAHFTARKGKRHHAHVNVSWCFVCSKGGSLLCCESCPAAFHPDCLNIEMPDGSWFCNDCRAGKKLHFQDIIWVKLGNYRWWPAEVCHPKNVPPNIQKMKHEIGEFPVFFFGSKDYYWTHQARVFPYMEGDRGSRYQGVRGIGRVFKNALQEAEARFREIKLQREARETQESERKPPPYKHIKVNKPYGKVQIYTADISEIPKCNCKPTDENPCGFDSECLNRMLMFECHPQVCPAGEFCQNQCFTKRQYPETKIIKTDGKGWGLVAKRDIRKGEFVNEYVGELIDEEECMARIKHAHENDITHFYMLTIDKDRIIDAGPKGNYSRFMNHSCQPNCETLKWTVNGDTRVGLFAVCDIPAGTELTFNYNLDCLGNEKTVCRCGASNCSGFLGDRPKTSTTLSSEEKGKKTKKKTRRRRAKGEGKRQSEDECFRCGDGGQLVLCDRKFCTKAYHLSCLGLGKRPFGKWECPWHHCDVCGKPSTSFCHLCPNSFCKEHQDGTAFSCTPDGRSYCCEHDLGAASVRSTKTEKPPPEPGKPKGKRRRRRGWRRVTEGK
# Format: biochemical
The source made the active and inactive calls.
Possible outcomes: active, inactive

>>> cat("CCN(c1ccccc1)S(=O)(=O)c1cc(C(=O)O)ccc1C")
"active"
>>> cat("Cc1c(C)n(Cc2ccccc2)c2ccc(C(=O)OCCN(C)C)cc12")
"inactive"
>>> cat("CN(C)CCNc1ncnc2oc(-c3ccccc3)c(-c3ccccc3)c12")
"inactive"
>>> cat("CC/C(NCCCN(CC)CC)=C1/C(=O)NC(=O)N(C2CCCCC2)C1=O")
"inactive"
>>> cat("CC[n+]1c(/C=C/c2c[nH]c3ccccc23)ccc2cc(C)ccc21")
"inactive"
>>> cat("COc1ccc(/C=N/Nc2cc(N3CCCC3)nc(N3CCCC3)n2)cc1")
"active"

* * *

Readings of IC50 for the listed compounds
# TARGET_OR_TEST_SYSTEM: UniProt:P00748
# Sequence (P00748 20-372 limits assumed): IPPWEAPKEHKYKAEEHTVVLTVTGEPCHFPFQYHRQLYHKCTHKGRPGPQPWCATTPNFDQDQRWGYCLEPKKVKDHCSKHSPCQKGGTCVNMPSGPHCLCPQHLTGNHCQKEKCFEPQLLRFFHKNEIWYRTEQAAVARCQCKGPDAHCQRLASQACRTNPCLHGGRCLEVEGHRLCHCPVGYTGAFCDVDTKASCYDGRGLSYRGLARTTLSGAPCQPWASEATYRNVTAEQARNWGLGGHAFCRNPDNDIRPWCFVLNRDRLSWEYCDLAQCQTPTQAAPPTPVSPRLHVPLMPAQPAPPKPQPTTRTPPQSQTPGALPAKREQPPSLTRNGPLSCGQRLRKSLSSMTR
# Sequence (P00748 373-615 limits assumed): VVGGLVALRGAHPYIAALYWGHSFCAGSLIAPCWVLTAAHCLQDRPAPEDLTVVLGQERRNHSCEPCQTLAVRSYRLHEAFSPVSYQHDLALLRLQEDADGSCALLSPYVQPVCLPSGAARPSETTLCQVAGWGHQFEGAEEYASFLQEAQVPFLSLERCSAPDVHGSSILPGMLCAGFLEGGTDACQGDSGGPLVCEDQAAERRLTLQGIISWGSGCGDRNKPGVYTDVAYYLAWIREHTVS
# Assay type: functional
Activity calls are given as the source filed them.
PROPERTY: IC50

>>> meas_value("C/C(=N\\NC(=O)c1cccc(N/N=C(\\C)c2ccccc2)c1)c1ccccc1")
"> 50 µM (inactive)"
>>> meas_value("Cc1[nH]c2ccccc2c1NC(=O)CN1CCN(C(=O)c2ccco2)CC1")
"> 50 µM (inactive)"
>>> meas_value("Cc1cc(OC(=O)c2ccc(Cl)cc2Cl)nc(C)n1")
"> 50 µM (inconclusive)"
>>> meas_value("c1ccc(-c2csc3ncnc(NCC4COc5ccccc5O4)c23)cc1 (stereo not given)")
"> 50 µM (inactive)"
>>> meas_value("C=CCNC(=S)N/N=C/c1ccc(C)c([N+](=O)[O-])c1")
"> 50 µM (inactive)"

* * *

# PROTOCOL_DESCRIPTION: MC4R antagonists, dose response, counter-screen for LGR2 antagonist project, cell-based, plate reader, cherry pick (AID 743444);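 note: transfected HEK 293 cells stimulated with alpha-MSH peptide; potency of inhibitors of the alpha-MSH evoked signal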
# Type: functional
Calls of active or inactive are those of the source.
Readings of AC50 for the listed molecules
PROPERTY: AC50

>>> meas_value("COc1cc(CNCCO)cc(Cl)c1OCc1ccc(Cl)cc1Cl")
"43.2 µM (active)"
>>> meas_value("Brc1ccc(-c2nc(-c3ccccn3)no2)o1")
"3.84 µM (active)"
>>> meas_value("Cc1cc2ncc(-c3cccs3)nc2cc1C")
"4.22 µM (active)"
>>> meas_value("C[C@H](CO)N1C[C@H](C)[C@H](CN(C)C(=O)Nc2cccc3ccccc23)OCCCC[C@H](C)Oc2ccc(NC(=O)c3ccccc3)cc2C1=O")
"52.5 µM (active)"
>>> meas_value("OC[C@H]1[C@@H](c2ccc(-c3ccc(F)cc3)cc2)[C@@H]2CN(Cc3ccccn3)CCCCN12")
"37.5 µM (active)"

* * *

Readings of IC50 for the listed compounds
# TARGET_OR_TEST_SYSTEM: Sentrin-specific protease 8 (Homo sapiens, UniProt Q96LD8);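 note: kinetic enzyme assay of SENP8 cleaving a Nedd8 protein substrate, dose-response confirmation of screening hits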
# Sequence (Q96LD8 whole entry): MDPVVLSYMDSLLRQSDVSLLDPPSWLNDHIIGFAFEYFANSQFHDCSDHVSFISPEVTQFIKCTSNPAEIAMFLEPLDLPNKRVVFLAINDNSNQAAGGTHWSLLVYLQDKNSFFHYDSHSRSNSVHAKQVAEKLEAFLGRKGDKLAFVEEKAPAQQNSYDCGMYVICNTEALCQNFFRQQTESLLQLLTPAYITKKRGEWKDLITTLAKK
# Type: functional
The source made the active and inactive calls.
PROPERTY: IC50

>>> meas_value("COc1ccc(N2C(=O)[C@@H]3[C@H](C2=O)[C@H]2c4ccccc4C=CN2[C@@H]3C(C)=O)cc1")
"0.543 µM (active)"
>>> meas_value("CCOc1cc(NC2CS(=O)(=O)CC2O)c(OCC)cc1NC(=O)c1ccccc1 (centres undefined)")
"45.9 µM (active)"
>>> meas_value("O=C(Cc1ccccc1)c1nc2ccccc2s1")
"6.06 µM (active)"
>>> meas_value("Cc1cc2c(NC(=O)CC(C)(C)CC(=O)O)cccc2nn1")
"8.03 µM (active)"

* * *

# TARGET_OR_TEST_SYSTEM: SUMO-activating enzyme (Homo sapiens, UniProt Q9UBT2)
# Sequence (Q9UBE0 whole entry): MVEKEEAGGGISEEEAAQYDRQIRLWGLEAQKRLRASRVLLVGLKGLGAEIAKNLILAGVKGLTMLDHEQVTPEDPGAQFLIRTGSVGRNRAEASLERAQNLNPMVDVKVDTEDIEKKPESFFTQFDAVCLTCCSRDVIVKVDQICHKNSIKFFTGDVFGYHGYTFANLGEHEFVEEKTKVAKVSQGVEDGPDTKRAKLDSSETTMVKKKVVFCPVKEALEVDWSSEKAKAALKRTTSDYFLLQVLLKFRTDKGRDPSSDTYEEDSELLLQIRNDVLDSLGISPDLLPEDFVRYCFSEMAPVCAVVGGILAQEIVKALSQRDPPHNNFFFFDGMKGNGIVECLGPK
# Sequence (Q9UBT2 whole entry): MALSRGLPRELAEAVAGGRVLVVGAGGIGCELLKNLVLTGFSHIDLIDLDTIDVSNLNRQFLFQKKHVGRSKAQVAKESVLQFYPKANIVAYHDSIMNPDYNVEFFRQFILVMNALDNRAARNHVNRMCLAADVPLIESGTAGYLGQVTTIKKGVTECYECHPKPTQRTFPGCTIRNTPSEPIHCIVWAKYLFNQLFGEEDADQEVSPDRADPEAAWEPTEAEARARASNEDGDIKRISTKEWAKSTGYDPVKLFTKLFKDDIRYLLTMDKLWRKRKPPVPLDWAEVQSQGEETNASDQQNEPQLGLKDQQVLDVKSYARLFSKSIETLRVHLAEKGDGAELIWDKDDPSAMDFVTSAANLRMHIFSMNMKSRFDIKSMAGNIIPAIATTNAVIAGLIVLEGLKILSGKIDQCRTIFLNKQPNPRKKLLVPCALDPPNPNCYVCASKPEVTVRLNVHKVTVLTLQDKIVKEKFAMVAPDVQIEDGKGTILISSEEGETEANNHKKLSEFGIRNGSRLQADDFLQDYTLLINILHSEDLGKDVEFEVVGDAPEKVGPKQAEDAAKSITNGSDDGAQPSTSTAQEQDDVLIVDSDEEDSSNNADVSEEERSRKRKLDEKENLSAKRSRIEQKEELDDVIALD
# PROTOCOL_DESCRIPTION: SUMOylation inhibitor hit validation, confirmation, SUMOylation inhibitor project, biochemical, AlphaScreen (AID 2018)
# Format: functional
The source made the active and inactive calls.
Readings of IC50 for the listed compounds
PROPERTY: IC50

>>> meas_value("COc1ccc(/C=N/Nc2cc(N3CCCC3)nc(N3CCCC3)n2)cc1")
"0.68 µM (active)"
>>> meas_value("O=C(Nc1nc(-c2ccccc2)cs1)c1ccccc1NS(=O)(=O)c1ccc(F)cc1")
"7.97 µM (active)"
>>> meas_value("COc1ccccc1NC(=O)c1sc2nc(-c3ccco3)ccc2c1N")
"45.2 µM (active)"
>>> meas_value("Cc1ccc2c(SCC(=O)NCc3ccco3)nc(-c3ccc(F)cc3)nc2c1")
"50.1 µM (active)"
>>> meas_value("Cc1ccc(NC(=O)Cn2nc(C(=O)Nc3ccc(C)cc3)ccc2=O)cc1")
"30.8 µM (active)"
>>> meas_value("CCC(C)(C)C1CCc2c(sc(NC(=O)c3ccccc3C(=O)O)c2C#N)C1 (stereo unspecified)")
"15.3 µM (active)"

* * *

# TARGET_OR_TEST_SYSTEM: Heat shock protein HSP 90-alpha (Homo sapiens, UniProt P07900)
# Assay type: functional, organism-based
The source made the active and inactive calls.
PROPERTY: AC50

>>> meas_value("Cc1ccc(-c2nc3cccnc3s2)cc1NS(=O)(=O)c1ccc2c(c1)OCCO2")
"2.9 µM (active)"
>>> meas_value("O=C(Nc1nc(-c2ccccc2)cs1)c1ccccc1NS(=O)(=O)c1ccc(F)cc1")
"2.91 µM (active)"
>>> meas_value("O=C(c1cccs1)c1no[n+]([O-])c1C(=O)c1cccs1")
"3.5 µM (active)"
>>> meas_value("Cc1cc(C)c2c(N=NN3CCOCC3)[nH]nc2n1")
"4.4 µM (active)"
>>> meas_value("C/C(=N\\NC(=O)c1cc2ccccc2cc1O)c1ccccn1")
"6.63 µM (active)"
>>> meas_value("O=C1c2ccccc2NC(c2ccc(-c3ccc(Br)cc3)o2)N1O (stereo not drawn)")
"6.74 µM (active)"
>>> meas_value("CCCCCCCCCCCCCCCC[n+]1cccc(C(=O)N(CC)CC)c1")
"2.89 µM (active)"
>>> meas_value("Oc1c(I)cc(I)c2cccnc12")
"0.391 µM (active)"
